# credit: patent US8604040B2

Test: log P by HPLC (EEC Directive 79/831 Annex V.A8)
Format: physicochemical
Details: [b] LC-MS, acidic range, pH 2.7, 0.1% aqueous formic acid and acetonitrile
Marks after values point to notes of the source that are not given here.
Attribute: log P

Would you please look over these solved cases?
compound	result
CCOC(=O)c1cccc(C2CCN(C(=O)Cn3nc(C(F)(F)F)cc3C)CC2)n1 [Example 134]	2.74^[b]
Cc1cccnc1COC(=O)c1cccc(C2CCN(C(=O)Cn3nc(C(F)F)cc3C(F)F)CC2)n1	2.14^[b]
CCOC(=O)c1cccc(C2CCN(C(=O)Cn3nc(C(F)(F)F)cc3C)CC2)n1 [Example 132]	2.73^[b]
Cc1cc(C(F)(F)F)nn1CC(=O)N1CCN(c2cccc(C(=O)OC3C=CCCC3)n2)CC1 (centres unmarked)	3.67

Exercise: Field request: log P | item: Cc1cccnc1COC(=O)c1cccc(C2CCN(C(=O)Cn3nc(C(F)(F)F)cc3C)CC2)n1
Solution: 2.23^[b]

Exercise: What measured log P goes with Cc1cc(C(F)(F)F)nn1CC(=O)N1CCC(c2cccc(C(=O)OCc3ccc(F)cc3F)n2)CC1 ?
Solution: 3.6^[b]

Exercise: Consider the compound CN(C(=O)c1cccc(C2CCN(C(=O)Cn3nc(C(F)F)cc3C(F)F)CC2)n1)c1ccccc1Cl and give its measured log P.
Solution: 3.01^[b]; 3.01^[c]

Exercise: Entry under review: Cc1ccccc1CSC(=O)c1cccc(N2CCN(C(=O)Cn3nc(C(F)(F)F)cc3C)CC2)n1 . Reported log P?
Solution: 4.52

###

Test: log P by HPLC (EEC Directive 79/831 Annex V.A8)
Type: physicochemical
Conditions: [b] LC-MS, acidic range, pH 2.7, 0.1% aqueous formic acid and acetonitrile
The entries below are paired with their reported log P.

Example entries begin here.
compound	log P
O=C(OC1CCCc2ccccc21)c1cccc(C2CCN(C(=O)Cn3nc(C(F)F)cc3C(F)F)CC2)n1 (stereo not drawn) [Example 100]	4.07^[b]
Cc1cc(C(F)(F)F)nn1CC(=O)N1CCN(c2cccc(C(=O)OC3CCCc4ccccc43)n2)CC1 (stereo not drawn) [Example 70]	4.19

Proceed to the following item.
Exercise: Query (compound): CCCCCCCOC(=O)c1cccc(C2CCN(C(=O)Cn3nc(C(F)F)cc3C(F)F)CC2)n1 [Example 102] ; field requested: log P
Solution: 4.59^[b]

###

Listed here are molecules together with their documented log P.
Assay: log P by HPLC (EEC Directive 79/831 Annex V.A8)
Type: physicochemical
Conditions: [c] LC-MS, neutral range, pH 7.8, 0.001 molar aqueous ammonium hydrogencarbonate and acetonitrile
The answer should be written as a number, with no unit following it.

molecule	readout.name	number
CN(Cc1ccccc1Cl)C(=O)c1cccc(N2CCN(C(=O)Cn3nc(C(F)F)cc3C(F)F)CC2)n1 [Example 148]	log P	3.25

Exercise: Name the recorded log P for O=C(Sc1cccc2ccccc12)c1cccc(C2CCN(C(=O)Cn3nc(C(F)F)cc3C(F)F)CC2)n1 [Example 114] .
Solution: 4.42

###

Assay: log P by HPLC (EEC Directive 79/831 Annex V.A8)
Format: physicochemical
Conditions: HPLC (LC-MS); [c] LC-MS, neutral range, pH 7.8, 0.001 molar aqueous ammonium hydrogencarbonate and acetonitrile; read-out: log P
readout.name: chromatographic logP
Just the number, please, no unit after it.

Exercise: # query: chromatographic logP of entry O=C(OC1CCCc2ccccc21)c1cccc(N2CCN(C(=O)Cn3nc(C(F)F)cc3C(F)F)CC2)n1 (stereo not shown)
Solution: 4.07

###

Assay: log P by HPLC (EEC Directive 79/831 Annex V.A8)
Format: physicochemical
Settings: [c] LC-MS, neutral range, pH 7.8, 0.001 molar aqueous ammonium hydrogencarbonate and acetonitrile
readout.name: log P
Enter a number only.

Solved entries:
compound	number
O=C(NCc1ccc(F)cc1F)c1cccc(C2CCN(C(=O)Cn3nc(C(F)F)cc3C(F)F)CC2)n1	3.24
CN(Cc1ccccn1)C(=O)c1cccc(C2CCN(C(=O)Cn3nc(C(F)F)cc3C(F)F)CC2)n1	2.18

Exercise: What log P value was documented for this compound, O=C(SC1CCCCC1)c1cccc(C2CCN(C(=O)Cn3nc(C(F)F)cc3C(F)F)CC2)n1 ?
Solution: 4.65

Exercise: // log P lookup, key: Cc1cc(C(F)(F)F)nn1CC(=O)N1CCN(c2cccc(C(=O)NCc3ccccc3Cl)n2)CC1
Solution: 3.36

Exercise: I'd like to know its log P. The compound in question is Cc1cc(C(F)(F)F)nn1CC(=O)N1CCC(c2cccc(C(=O)SCc3c(F)cccc3F)n2)CC1
Solution: 4.29

Exercise: Recorded log P for O=C(NCc1ccccc1Cl)c1cccc(C2CCN(C(=O)Cn3nc(C(F)F)cc3C(F)F)CC2)n1 , please?
Solution: 3.39

Exercise: Record request: log P value, item Cc1cc(C(F)(F)F)nn1CC(=O)N1CCN(c2cccc(C(=O)N(C)Cc3ccccc3Br)n2)CC1
Solution: 3.46

Exercise: For Cc1ccsc1CNC(=O)c1cccc(C2CCN(C(=O)Cn3nc(C(F)F)cc3C(F)F)CC2)n1 , what is its reported log P?
Solution: 3.18

###

Experiment: log P by HPLC (EEC Directive 79/831 Annex V.A8)
Format: physicochemical
Conditions: [c] LC-MS, neutral range, pH 7.8, 0.001 molar aqueous ammonium hydrogencarbonate and acetonitrile
Could you mark each record y if its log P falls strictly under 4, and n if it equals or exceeds it?

For orientation, consider the following solved cases.
molecule	assigned.label
Cc1cc(C(F)(F)F)nn1CC(=O)N1CCC(c2cccc(C(=O)Sc3cccc4ccccc34)n2)CC1 [Example 60]	n
CCCCCCCSC(=O)c1cccc(N2CCN(C(=O)Cn3nc(C(F)F)cc3C(F)F)CC2)n1 [Example 130]	n

Exercise: log P strictly < 4 for this molecule? O=C(NCc1cccs1)c1cccc(C2CCN(C(=O)Cn3nc(C(F)F)cc3C(F)F)CC2)n1 [Example 91]
Solution: y

Exercise: Could you please tell me whether log P recorded for Cc1cc(C(F)(F)F)nn1CC(=O)N1CCC(c2cccc(C(=O)N(C)c3ccccc3Cl)n2)CC1 [Example 10] is less than 4?
Solution: y

Exercise: Record Cc1cc(C(F)(F)F)nn1CC(=O)N1CCC(c2cccc(C(=O)Nc3c(F)cccc3F)n2)CC1 [Example 28] : is its log P strictly below 4?
Solution: y

Exercise: Consider Cc1cc(C(F)(F)F)nn1CC(=O)N1CCC(c2cccc(C(=O)Sc3cccs3)n2)CC1 [Example 63] . Does its log P lie strictly below 4?
Solution: y

###

Test: log P by HPLC (EEC Directive 79/831 Annex V.A8)
Assay type: physicochemical
Settings: [c] LC-MS, neutral range, pH 7.8, 0.001 molar aqueous ammonium hydrogencarbonate and acetonitrile
Classify as follows. Reported log P greater than or equal to 4: 1. Reported log P below: -1.

Completed entries (count: 5):
compound	assigned.label
Cc1cc(C(F)(F)F)nn1CC(=O)N1CCC(c2cccc(C(=O)N(C)C3CCCCC3)n2)CC1	-1
Cc1cc(C(F)(F)F)nn1CC(=O)N1CCN(c2cccc(C(=O)OCc3c(F)cc(F)cc3F)n2)CC1	-1
Cc1cc(C(F)(F)F)nn1CC(=O)N1CCN(c2cccc(C(=O)N(C)C3CCCCC3)n2)CC1	-1
O=C(Sc1cccs1)c1cccc(C2CCN(C(=O)Cn3nc(C(F)F)cc3C(F)F)CC2)n1	-1
O=C(SCc1c(F)cccc1F)c1cccc(C2CCN(C(=O)Cn3nc(C(F)F)cc3C(F)F)CC2)n1	1

Please examine the following record next.
Exercise: Answer whether log P of Cc1cc(C(F)(F)F)nn1CC(=O)N1CCC(c2cccc(C(=O)NCc3cccs3)n2)CC1 is greater than or equal to 4.
Solution: -1

###

Assay: log P by HPLC (EEC Directive 79/831 Annex V.A8)
Assay type: physicochemical
Conditions: [b] LC-MS, acidic range, pH 2.7, 0.1% aqueous formic acid and acetonitrile
log P values for the compounds below.

Below: 5 compounds and their reported log P.
compound	readout.name	result
Cc1cc(C(F)(F)F)nn1CC(=O)N1CCN(c2cccc(C(=O)N(C)C3CCCCC3)n2)CC1	log P	3.19
Cc1csc(COC(=O)c2cccc(C3CCN(C(=O)Cn4nc(C(F)F)cc4C(F)F)CC3)n2)c1	log P	3.6^[b]
Cc1cc(C(F)(F)F)nn1CC(=O)N1CCC(c2cccc(C(=O)OCc3ccccc3OC(F)(F)F)n2)CC1	log P	4.06^[b]
O=C(NC1CCc2ccccc21)c1cccc(C2CCN(C(=O)Cn3nc(C(F)F)cc3C(F)F)CC2)n1 (stereo not shown)	log P	3.4
Cc1cc(C(F)(F)F)nn1CC(=O)N1CCC(c2cccc(C(=O)Nc3cccc4cccnc34)n2)CC1	log P	4.02

Exercise: Using the record for Cc1cc(C(F)(F)F)nn1CC(=O)N1CCC(c2cccc(C(=O)OCC3CCCCC3)n2)CC1 , report its log P.
Solution: 4.38^[b]

Exercise: For the compound shown here, Cc1cc(C(F)(F)F)nn1CC(=O)N1CCC(c2cccc(C(=O)N(C)C3CCCCC3)n2)CC1 , give the reported log P.
Solution: 3.15
